- TESTED SYSTEM: NR1/NR2B (Homo sapiens (Human), UniProt Q05586+Q13224)
- Sequence (Q13224 27-1484, other chains not shown): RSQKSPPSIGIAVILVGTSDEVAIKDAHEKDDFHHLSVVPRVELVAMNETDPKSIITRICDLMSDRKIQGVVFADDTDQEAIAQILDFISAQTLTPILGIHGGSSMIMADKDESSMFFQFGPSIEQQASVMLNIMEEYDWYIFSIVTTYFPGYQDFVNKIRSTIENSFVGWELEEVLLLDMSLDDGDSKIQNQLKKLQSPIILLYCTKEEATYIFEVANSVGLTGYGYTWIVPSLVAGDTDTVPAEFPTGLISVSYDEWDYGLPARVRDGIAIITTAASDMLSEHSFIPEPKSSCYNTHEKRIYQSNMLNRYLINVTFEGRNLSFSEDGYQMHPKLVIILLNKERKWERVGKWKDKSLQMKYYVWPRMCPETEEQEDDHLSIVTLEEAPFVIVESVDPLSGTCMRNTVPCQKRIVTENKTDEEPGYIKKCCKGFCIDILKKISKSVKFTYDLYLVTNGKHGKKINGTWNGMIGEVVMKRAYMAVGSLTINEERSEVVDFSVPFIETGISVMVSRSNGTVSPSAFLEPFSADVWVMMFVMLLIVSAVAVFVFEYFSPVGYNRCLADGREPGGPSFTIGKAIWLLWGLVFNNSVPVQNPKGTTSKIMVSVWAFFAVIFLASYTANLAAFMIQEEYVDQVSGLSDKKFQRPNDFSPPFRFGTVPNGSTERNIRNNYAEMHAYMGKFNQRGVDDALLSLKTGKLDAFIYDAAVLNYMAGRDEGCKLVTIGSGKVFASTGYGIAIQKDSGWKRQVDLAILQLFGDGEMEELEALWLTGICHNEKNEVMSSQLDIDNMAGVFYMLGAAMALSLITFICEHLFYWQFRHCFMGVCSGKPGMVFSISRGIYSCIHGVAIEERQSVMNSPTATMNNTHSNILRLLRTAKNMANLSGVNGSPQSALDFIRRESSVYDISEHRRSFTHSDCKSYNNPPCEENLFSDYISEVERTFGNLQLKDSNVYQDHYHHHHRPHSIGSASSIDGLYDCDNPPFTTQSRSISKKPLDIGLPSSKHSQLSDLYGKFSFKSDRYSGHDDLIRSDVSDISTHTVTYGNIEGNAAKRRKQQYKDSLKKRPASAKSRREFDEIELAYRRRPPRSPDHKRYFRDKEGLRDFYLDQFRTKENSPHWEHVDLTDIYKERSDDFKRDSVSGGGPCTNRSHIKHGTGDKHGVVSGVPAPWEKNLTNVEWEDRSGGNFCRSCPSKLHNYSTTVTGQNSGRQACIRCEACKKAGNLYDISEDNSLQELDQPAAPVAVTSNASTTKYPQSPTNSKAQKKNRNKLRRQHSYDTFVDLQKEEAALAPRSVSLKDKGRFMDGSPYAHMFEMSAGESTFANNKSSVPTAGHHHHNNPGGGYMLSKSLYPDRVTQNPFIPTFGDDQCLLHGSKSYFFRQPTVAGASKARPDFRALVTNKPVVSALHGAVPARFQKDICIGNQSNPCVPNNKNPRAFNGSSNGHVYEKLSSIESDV
- ASSAY TEXT: Cell assay: FDSS Ca2+ influx inhibition in HEK293 cells expressing NR1/NR2B;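 note: Fluo-8 Ca2+ signal read on Hamamatsu FDSS 6000 after glutamate, glycine and Ca2+ challenge following 10 min compound preincubation, end/baseline fluorescence ratio compared with MK801 control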
- TEST SETTINGS: Binned Activity, HEK293 cells expressing NR1/NR2B, Ca2+ influx; binned NR2B NAM IC50
pIC50: −log10 of the molar value.
RECORDED ENDPOINT: pIC50

COMPOUND	RECORDED ENDPOINT	MEASUREMENT
O=C(CCN1C[C@@H]2C[C@@](O)(Cc3ccccc3)C[C@@H]2C1)c1ccc(O)cc1	pIC50	5.00 to 6.00
COc1ccc(C[C@]2(O)C[C@H]3CN(CC(=O)c4ccc(O)cn4)C[C@H]3C2)cc1	pIC50	5.00 to 6.00
O=C(CN1C[C@@H]2C[C@@](O)(Cc3ccccn3)C[C@@H]2C1)c1ccc(O)cc1	pIC50	6.00 to 7.00

stdin: I am curious: what pIC50 value has been reported for Oc1ccc(C(O)CN2C[C@@H]3C[C@@](O)(Cc4ccccc4)C[C@@H]3C2)nc1 (mixture of isomers) ?
stdout: > 7.00
